study.system: SARS2 M^pro (Severe acute respiratory syndrome coronavirus 2, UniProt P0DTD1, P3395H)
Format: biochemical, SARS-CoV-2
What % inhibition (20 µM) biochemical was measured for each of the following?
Give bare numbers, in %.

Observe how each entry below is paired with its result.
{"columns": ["compound", "unit.name", "numeric.result"],
 "data": [
  ["COc1ccc2ccccc2c1/C=C1/S/C(=N/c2ccccc2Cl)NC1=O", "%", 6],
  ["CC1CCN(C(=O)/C=C/c2cccc3ccccc23)CC1", "%", 4.32],
  ["CCOc1ccc(/C=C2\\SC(Nc3ccccc3O)=NC2=O)cc1", "%", 5.42],
  ["Nc1ccc(C(=O)Nc2ccccc2N)cc1", "%", 5],
  ["CCOC(=O)N1CCN(c2nncc(-c3ccc4ccccc4c3)n2)CC1", "%", 38]
]}

Shift focus to the following entry.
Q: Requested field: % inhibition (20 µM) biochemical. Item: CCN1C(=O)C(O)(CC(=O)c2ccco2)c2cc(Br)ccc21 (stereo not drawn)
Result: 3
